Tested on: LOX IMVI melanoma
Experiment: NCI tumour cell line growth inhibition, 48 h
Where a SMILES comes first, the peptide text is derived from it. The star is where a group is joined. Boc = CC(C)(C)OC(=O)*
For each record, write down the corresponding TGI.

# batch: return TGI for each of the 4 molecules below
1. O=C(Nc1ccccc1)c1cc(S(=O)(=O)Nc2nc3ncccc3[nH]2)c(SSc2cc(Cl)c(C(=O)Nc3ccccc3)cc2S(=O)(=O)Nc2nc3ncccc3[nH]2)cc1Cl
2. O=c1cc(-c2ccccc2)[nH]c2ccc(N3CCCCC3)cc12
3. Cc1ccc(-c2cc3c(NC(=O)C4CC4)ncnc3o2)cc1
4. CNC(=S)N/N=C(\C)c1cc(OC)ccc1O

Ans:
> 100 µM
> 100 µM
> 25 µM
> 100 µM

Quick one: give me TGI for each item below, same order please.
1. CN1CCN(c2ccc(N3Cc4ccccc4OC4=C3C(=O)c3c(O)ccc(O)c3C4=O)cn2)CC1
2. O=C(O[C@H]1CN[C@H](C#Cc2cc3ncnc(Nc4ccc5c(cnn5Cc5ccccc5)c4)c3s2)C1)N1CCOCC1
3. CC(NC(=O)OC(C)(C)C)C(=O)NC(Cc1ccccc1)C(=O)NCC(=O)O (stereo not drawn) (Boc-Ala-Phe-Gly-OH; configuration not given here)

Ans:
["0.618 µM", "> 25 µM", "> 100 µM"]

Go through the items and report each one's TGI.
1. C[C@H](O)CNc1cc(-c2[nH]c3cccnc3c2-c2ccc(F)cc2)ccn1
2. CCCN1C(=O)/C(=C/c2cccc(O)c2)SC1=Nc1ccccc1

Ans:
1: > 25 µM; 2: 25.5 µM

====

Test system: NCI-H522 lung
Test: NCI tumour cell line growth inhibition, 48 h
measure: TGI (µM)
Numbers only, in µM.

Q: Annotate the molecule Clc1ccc(N2CCN(CCCN3CCN(c4cccc(Cl)c4)CC3)CC2)cc1 with its measured TGI.
Ans: 34

Q: Indicate the recorded TGI value for this molecule: COc1cc2c(/C=C3/C(=O)Nc4ccc(O)cc43)c(Cl)[nH]c2cc1C
Ans: 19.5

Q: Retrieve TGI measured for O=C1/C(=C/c2ccc(O)c(O)c2)COc2ccc(-c3ccccc3)cc21 and print it.
Ans: 1.16

Q: Answer with the recorded TGI of CCOC(=O)C1C(=O)CC(O)(c2ccccc2)C(C(=O)OCC)C1c1ccc(N(C)C)cc1 (stereo unspecified) only.
Ans: 30.7

Q: Let me know recorded TGI for COc1ccc2c(-c3ccc(OCCN(C)C)cc3)c(Oc3ccccc3)c(=O)oc2c1 , thanks.
Ans: 11.3

// each listed molecule needs a value for TGI
1. NCCCCCCn1c2c(c3ccccc3c1=O)C(=O)c1ccccc1-2
2. COc1ccc(C(=O)N/N=C2\C(=O)c3c(C)cc(C)cc3CC2(C)C)cc1
3. O=C(N=Nc1ccc(Br)cc1)NNc1ccc(Br)cc1

Ans:
1. 2.88
2. 33.6
3. 31

Quick batch: TGI for everything below.
1. CN1CCN(c2ccc(N3Cc4ccccc4OC4=C3C(=O)c3c(O)ccc(O)c3C4=O)cn2)CC1
2. COc1cc(/C=C/c2ccc(/C=C/c3cc(OC)c(OC)c(OC)c3)cc2)cc(OC)c1OC

Ans:
1: 0.134; 2: 27.2

====

System: HCT-116 colon
Assay: NCI tumour cell line growth inhibition, 48 h; in the data active = GI50 below about 0.43 µM; inactive = the rest
Use one of these outcomes when replying: yes for active, no for inactive

Q: Record request — test call for CSCCC(NC(=O)CNC(=O)C(CC(=O)O)NC(=O)C(NC(=O)C(NC(=O)C(NC(=O)CNC(=O)C(CCC(N)=O)NC(=O)C(CCSC)NC(=O)C(CC(=O)O)NC(=O)C(C)NC(=O)C(C)NC(=O)C(NC(=O)C(CO)NC(=O)C(N)CC(C)C)C(C)O)C(C)C)C(C)C)C(C)O)C(=O)NC(C)C(=O)NC(CO)C(=O)NCC(=O)NC(CC(C)C)C(=O)NC(CC(=O)O)C(=O)NC(CCCCN)C(=O)NC(CC(=O)O)C(=O)NC(Cc1ccc(O)cc1)C(=O)NC(CC(C)C)C(=O)NC(CCCCN)C(=O)N1CCCC1C(=O)NC(CC(=O)O)C(=O)NC(CC(=O)O)C(=O)O (stereo not drawn)
Ans: no

Q: In this assay, the call recorded for CCN(CC)CCOc1nc2c3ccc(Cl)cc3nn2c2ccccc12 was what?
Ans: no

Q: Query: recorded result category for O=C1/C(=C/c2ccc(O)c(O)c2)COc2ccc(-c3ccccc3)cc21 in this test
Ans: no

---
Q: Hello, I am checking results. What call was entered for Cc1ccc(S(=O)(=O)NC2=NCCN2C(=S)SN2CCn3c2nsc3=S)cc1 ?
Ans: no

Q: Recorded call for C[C@H](O)CNc1cc(-c2[nH]c3cccnc3c2-c2ccc(F)cc2)ccn1 ?
Ans: no

Q: Dear colleague, could you share the recorded outcome for CS(=O)(=O)Nc1ccc(Nc2c3ccccc3nc3cc(N)ccc23)cc1 when you have a moment?
Ans: no

Q: // outcome(item) with item = CCc1c2c(nc3ccc(OC(=O)NCc4ccc(B5OC(C)(C)C(C)(C)O5)cc4)cc13)-c1cc3c(c(=O)n1C2)COC(=O)[C@]3(O)CC
Ans: yes

Q: What call does the record list for [Co+2].[O-]c1ccccc1C=NCc1ccccc1.[O-]c1ccccc1C=NCc1ccccc1 ?
Ans: no

====

Would you kindly list TGI for each of these compounds?
Test system: U251 CNS
Assay: NCI tumour cell line growth inhibition, 48 h

Batch request: TGI per item, same order as input.
1. O=c1c(O)c(-c2ccccc2)n(O)c2ccc(Cl)cc12
2. COC(=O)c1nn(-c2ccccc2)c(=O)cc1N=[N+]=[N-]
3. CC(C)OC(=O)c1ccc(CCc2cc(O)c(Br)cc2O)cc1
4. O=C(/C=C(\N=P(c1ccccc1)(c1ccccc1)c1ccccc1)C(F)(F)C(F)(F)C(F)(F)C(F)(F)C(F)(F)C(F)(F)C(F)(F)F)c1ccccc1
5. CCOCc1cc(=O)c2c(O)cc3c(c2o1)CCC(C)(C)O3

Ans:
["> 100 µM", "> 100 µM", "17.5 µM", "> 100 µM", "> 100 µM"]

====

Test system: MDA-MB-231 breast
Assay: NCI tumour cell line growth inhibition, 48 h; in the data active means GI50 below about 0.43 µM; inactive means the rest
Returns: one label drawn from active, inactive

Look over these answered cases.
Q: // return assay outcome for Oc1ccccc1N=Cc1c(O)ccc2ccccc12
Ans: inactive

Q: Test call, this compound: CCOc1ccc2nc(S/C(=C/C=C(C#N)C#N)c3ccc(Cl)cc3)sc2c1
Ans: inactive

Q: Dear all, I need the recorded test outcome for COc1ccc(C(=O)n2nc(/C=C/c3ccc(O)c(OC)c3)cc2/C=C/c2ccc(O)c(OC)c2)cc1 , thank you.
Ans: inactive

Q: What classification did Cn1c2c(c3ccc(-c4ccn[nH]4)cc3c1=O)C(=O)c1ccccc1-2 end up with in this test?
Ans: inactive

Q: Would you mind telling me which call this test gave CCCN1C(=O)/C(=C/c2cccc(O)c2)SC1=Nc1ccc(OC)cc1 ?
Ans: inactive

Q: For Cc1cc(C)c(C#N)c(SCC(=O)c2sc3c(C#N)c(C)cc(C)[n+]3c2[O-])n1 , which call appears in the assay record?
Ans: inactive

Q: Look up the recorded call for Nc1cc(N)c2nc(-c3ccccc3)c(Sc3ccc(Cl)c(Cl)c3)nc2c1 in this test.
Ans: inactive

Q: For CCOC(=O)c1ccc2[nH]c(O)c(C(=Nc3ccc(N(C)C(=O)CN4CCN(C)CC4)cc3)c3ccccc3)c2c1 , which call appears in the assay record?
Ans: active

Next:
Q: GET /call?item= COc1ccc2c(c1)OCC1c3cc(O)ccc3OC21 (configuration not stated) returns the recorded outcome of this test.
Ans: inactive

Q: Entry CCCN1C(=O)/C(=C/c2cccc(O)c2)SC1=Nc1ccccc1 : call = ?
Ans: inactive

Q: // return assay outcome for O=C1c2ccccc2C(=O)c2c1ccc(C(Br)Br)c2Cl
Ans: inactive

Q: Returns: the outcome recorded for CCc1c2c(nc3ccc(OC(=O)NCc4ccc(B5OC(C)(C)C(C)(C)O5)cc4)cc13)-c1cc3c(c(=O)n1C2)COC(=O)[C@]3(O)CC in this assay.
Ans: inactive

====

What TGI was measured for each of the following?
Tested on: CCRF-CEM leukemia
Assay: NCI tumour cell line growth inhibition, 48 h
Answers are plain numbers, in µM.

For orientation, consider the following solved cases.
Q: # return recorded TGI for entry COc1ccc2c(c1)CCC1C2CCC2(C)C3=CC(O)CCC3CC12 (stereo unspecified)
Ans: 36.3

Q: Specify measured TGI for CC(C)=CCC/C(C)=C\CC/C(C)=C/CO .
Ans: 43.7

Q: Supply recorded TGI for S=C(N/N=C/c1ccccc1)NC12CC3CC(CC(C3)C1)C2 here.
Ans: 92.4

Consider the additional compound presented here.
Q: Tell us which TGI value is on record for CC(C)(C)c1ccc2c(c1)C(O)(c1ccccc1)c1cc(C(C)(C)C)ccc1C2(O)C(F)(F)F (stereo unspecified)
Ans: 5.57
